Answer each item with its documented self-cleavage.
B1: CPEB3 Ribozyme (parent)
chain: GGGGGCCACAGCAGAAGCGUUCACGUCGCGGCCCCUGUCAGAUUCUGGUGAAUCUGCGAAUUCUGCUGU

Variants of: B1
Test Protocol: self-cleavage, relative activity (ratio to wild type); higher = more cleavage; co-transcriptional

Known results for variants:
GGGGGCCACAGCAGAAGCGGACACGUCGCGGCCCCUGUCAGAUUCUGGUGAAUCUGCGAAUUCUGCUGU [U20G U21A]	0.252
GGGACCCACAGCAGAAGCGUUCACGUCGCGGCCCCUGUCAGAUUCUGGUGAAUCUGCGAAUUCUGCUGU [G4A G5C]	0.113
GGGGGCCACAGCAGAAGCGUUCACGUCGCGGCCCCUGUCAGAUUCUGGUGAAACUGCGAAUUCUCCUGU [U53A G65C]	0.552
GGGGGCCACAACAGAAGCGUUCACGUCGCGGACCCUGUCAGAUUCUGGUGAAUCUGCGAAUUCUGCUGU [G11A C32A]	0.816
GGGGGCCACAGCAGAAGAGUUCACGUCGCGGCCCCUGUCAGAUUCUGGUGAAUCUGCGAAAUCUGCUGU [C18A U61A]	0.138

// for each variant below, give its self-cleavage
1. GGGGGCCACAGCAGAAGCGUUCACGUCGCGGCCCCUGUCAGAUUCUGGUGAAUCUGCCAAUUCUGCCGU [G58C U67C]
2. GGGGGCCACAGCAGAAGCGCUCACGUCGCGGCCCCUGUCAGAUUCGGGUGAAUCUGCGAAUUCUGCUGU [U20C U46G]
3. GGGGGCCACAGCAGAAGCGUUCACGUCGCGGCCCCCGUCAGAAUCUGGUGAAUCUGCGAAUUCUGCUGU [U36C U43A]
4. GGGGUCCACAGCAGAAGCUUUCACGUCGCGGCCCCUGUCAGAUUCUGGUGAAUCUGCGAAUUCUGCUGU [G5U G19U]
5. GGGGGCCACAGCAGAACCGUUCACGUCGCGGCCCCUGUCAGAUUCUGGUGAAUCUCCGAAUUCUGCUGU [G17C G56C]
6. GGGGGCCGCAGCAGAAGCGUUCACGUCGCGGCCCCUGUCAGAUUCUCGUGAAUCUGCGAAUUCUGCUGU [A8G G47C]
7. GGGGGCCACAGCAGAAGCGUUCACGUCGCGGCCCUUGUCAGAUUCUGGUGAAUCCGCGAAUUCUGCUGU [C35U U55C]

-- reply
1. 0.961
2. 0.275
3. 0.787
4. 0.0974
5. 0.105
6. 0.945
7. 0.699

# per-item lookup of self-cleavage; items listed below
1. GGGGGCCACAGCAGAAGCGUUCACUACGCGGCCCCUGUCAGAUUCUGGUGAAUCUGCGAAUUCUGCUGU [G25U U26A]
2. GGGGGCCACAGCAGGAGCGUUCACGUCGCGGCCCCUGUCAGAUUCUGCUGAAUCUGCGAAUUCUGCUGU [A15G G48C]
3. GGGGGCCACAGCAGAAGUGUUCACGUCGCGGCCCCUGUCAGAUUCUGGUGAAUCCGCGAAUUCUGCUGU [C18U U55C]

-- reply
1. 0.273
2. 1
3. 0.446

List reported self-cleavage for each of these variants:
1. GGGGGCCACAGCAGACGCGUUCACAUCGCGGCCCCUGUCAGAUUCUGGUGAAUCUGCGAAUUCUGCUGU [A16C G25A]
2. GCGGGCCACAGCAGAAGCGUUCACGUCGCGGCCCCUGUCAGAUUCUGGUGAAUCUCCGAAUUCUGCUGU [G2C G56C]

-- reply
0.139
0.0446

Batch of 5 variants: report self-cleavage for each.
1. GGGGGCCACAGCAGAAGCGUUCACGUCGCGGCGCCUGUCAGAUUGUGGUGAAUCUGCGAAUUCUGCUGU [C33G C45G]
2. UGGGCCCACAGCAGAAGCGUUCACGUCGCGGCCCCUGUCAGAUUCUGGUGAAUCUGCGAAUUCUGCUGU [G1U G5C]
3. GGGGGCCACAGCAGAAGCGUUCACGUCGCGGCCCCUGUCAGAUUCUCGUGAAUCUGCGAAUUCUGCUUU [G47C G68U]
4. GGGGGCCACAGCAGAAGCGUUCACGUCGCGGCCCCAGUCAGAUUCUGGUGAAUCUGCGAAUUCAGCUGU [U36A U64A]
5. GGCGGCCACAGCAGAAGCGUUCACGUCGCGGCCCCUGUCCGAUUCUGGUGAAUCUGCGAAUUCUGCUGU [G3C A40C]

-- reply
1: 0.537; 2: 0.0789; 3: 0.994; 4: 0.232; 5: 0.0512

Please state self-cleavage for every variant in the list that follows.
1. GGGGGCCACAGCAGAAGCGUUCACGUCGCAGCCCCUGUCAGAUUCUGGUGAAUCUGCGAAUUCUGCAGU [G30A U67A]
2. GGGGGCCACAGCAGAAUCGUUCACGUCGCGGCCCCUGUCAGAUUCUGGUUAAUCUGCGAAUUCUGCUGU [G17U G50U]

-- reply
1: 0.901; 2: 0.552
